biological target: T1, human CCR8 (human, UniProt P51685 1-355); assay: FACS, competition with AF647-human CCL1 on HEK293-human CCR8 cells
T1 construct: whole, on cells; also called hCCR8
T1 sequence (P51685 whole entry): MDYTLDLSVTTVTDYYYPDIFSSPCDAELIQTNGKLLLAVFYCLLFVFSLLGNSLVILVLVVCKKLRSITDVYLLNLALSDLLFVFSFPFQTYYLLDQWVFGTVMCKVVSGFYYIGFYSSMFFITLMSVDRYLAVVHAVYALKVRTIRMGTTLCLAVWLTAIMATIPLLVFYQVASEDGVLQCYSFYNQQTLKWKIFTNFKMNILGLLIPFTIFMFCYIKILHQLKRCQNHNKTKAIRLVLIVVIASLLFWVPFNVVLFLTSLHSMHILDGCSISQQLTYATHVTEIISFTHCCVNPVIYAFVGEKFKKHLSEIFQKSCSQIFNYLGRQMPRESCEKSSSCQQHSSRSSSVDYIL
For each record, write down the corresponding Max Inhibition (%).

{"columns": ["binder", "observed.result"],
 "data": [
  ["160D1E3 (antibody, V domains shown, purified murine hybridoma antibody) VH: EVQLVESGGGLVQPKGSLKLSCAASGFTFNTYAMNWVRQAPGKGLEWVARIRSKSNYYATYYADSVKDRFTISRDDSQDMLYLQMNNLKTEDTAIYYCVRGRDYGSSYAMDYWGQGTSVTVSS VL: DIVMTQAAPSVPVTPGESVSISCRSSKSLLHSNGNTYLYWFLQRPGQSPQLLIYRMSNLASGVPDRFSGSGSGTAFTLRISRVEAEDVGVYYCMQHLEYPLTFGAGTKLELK", "100%"]
]}

Ask: What Max Inhibition (%) value was documented for this binder, 234G9C12 (antibody, V domains shown, purified murine hybridoma antibody) VH: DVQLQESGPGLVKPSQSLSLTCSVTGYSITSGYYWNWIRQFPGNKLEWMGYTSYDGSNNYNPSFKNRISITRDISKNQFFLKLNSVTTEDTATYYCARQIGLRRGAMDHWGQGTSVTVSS VL: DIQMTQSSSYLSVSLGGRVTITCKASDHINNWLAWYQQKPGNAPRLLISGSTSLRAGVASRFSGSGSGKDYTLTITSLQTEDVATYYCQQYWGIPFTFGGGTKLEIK ?
Result: 94%
